- target: endogenous CETP from human serum (Homo sapiens)
- Construct: yielding a concentration of approximately 15 nM endogenous CETP in the assay
- protocol: RTA assay using endogenous CETP from serum (95% RTA)
- testContext: 95% human serum
measurementLabel: IC50 (nM)
Numbers only, in nM.

> print(dat)
                                   compound  measurementlabel  unitsymbol  value
1  O[C@H](CN1CC(Cc2cccc(OC(F)(F)F)c2)(c2cccc(N3CC(F)C3)c2)c2ccccc21)C(F)(F)F (stereo partly drawn)              IC50          nM    319

Give IC50 for each listed item.
1. CCOc1cc(C2(Cc3cccc(OC)c3)CN(C[C@@H](O)C(F)(F)F)c3ccccc32)ccn1 (stereo partly drawn)
2. O[C@H](CN1CC(Cc2cccc(N3CC[C@H](F)C3)c2)(c2cccc(OC(F)(F)F)c2)c2ccccc21)C(F)(F)F (stereo partly drawn)

1. 681
2. 3680

====

- target: recombinant CETP (Homo sapiens, UniProt P11597)
- protocol: RTA assay using recombinant CETP (2% RTA)
- testContext: 2% human serum
measurementLabel: pIC50
Give bare numbers, as −log10 of the molar value.

> print(dat)
                                   molecule  value
1  O[C@H](CN1CC(Cc2cccc(OC(F)(F)F)c2)(c2cccc(N3CCC(F)(F)C3)c2)c2ccccc21)C(F)(F)F (stereo partly drawn)   7.01
2  C[C@H]1CN(c2cccc(CC3(c4cccc(OC(F)(F)F)c4)CN(C[C@@H](O)C(F)(F)F)c4ccccc43)c2)CCO1 (stereo partly drawn)   6.32
3  O[C@H](CN1CC(Cc2cccc(OC(F)(F)F)c2)(c2cccc(N[C@@H]3CCOC3)c2)c2ccccc21)C(F)(F)F (mixture of isomers)   6.60
4  CO[C@H]1CCN(c2cccc(C3(Cc4cccc(OC(F)(F)F)c4)CN(C[C@@H](O)C(F)(F)F)c4ccccc43)c2)C1 (stereo partly drawn)   7.11
5  N#Cc1cccc(CC2(c3cccc(OC(F)(F)F)c3)CN(C[C@@H](O)C(F)(F)F)c3ccccc32)c1 (stereo partly drawn)   6.77

Read the next record carefully.
Endpoint output: pIC50 of O[C@H](CN1CC(Cc2cccc(OC(F)(F)F)c2)(c2cccc(Cl)c2)c2ccccc21)C(F)(F)F (mixture of isomers) . Value?
6.33

====

Would you mind telling me the reported pIC50 of each entry?
- target: recombinant CETP (Homo sapiens)
- Sequence (P11597 18-493): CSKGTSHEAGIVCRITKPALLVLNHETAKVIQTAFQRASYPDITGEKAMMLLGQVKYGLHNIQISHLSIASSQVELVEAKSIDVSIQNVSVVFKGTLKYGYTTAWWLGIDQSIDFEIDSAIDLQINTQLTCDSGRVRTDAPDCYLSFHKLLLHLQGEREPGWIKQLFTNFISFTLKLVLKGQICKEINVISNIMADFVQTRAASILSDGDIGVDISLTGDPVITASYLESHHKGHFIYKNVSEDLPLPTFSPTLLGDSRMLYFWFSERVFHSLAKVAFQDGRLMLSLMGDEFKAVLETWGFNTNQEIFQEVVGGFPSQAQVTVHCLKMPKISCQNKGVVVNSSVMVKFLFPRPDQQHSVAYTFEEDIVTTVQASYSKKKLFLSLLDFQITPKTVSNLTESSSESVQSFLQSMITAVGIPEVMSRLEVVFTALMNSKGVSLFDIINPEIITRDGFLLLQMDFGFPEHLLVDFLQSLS
- protocol: RTA assay using recombinant CETP (2% RTA)
- testContext: 2% human serum
Answers are plain numbers, as −log10 of the molar value.

For orientation, consider the following solved cases.
> print(dat)
                                   compound                           target  measurementlabel  value
1  C[C@@H]1CN(c2cccc(C3(Cc4cccc(OC(F)(F)F)c4)CN(C[C@@H](O)C(F)(F)F)c4ccccc43)c2)CCO1 (some centres unmarked)  recombinant CETP (Homo sapiens)             pIC50   7.01
2  CO[C@@H]1CCN(c2cccc(C3(Cc4cccc(OC(F)(F)F)c4)CN(C[C@@H](O)C(F)(F)F)c4ccccc43)c2)C1 (some centres unmarked)  recombinant CETP (Homo sapiens)             pIC50   6.94

Give pIC50 for each listed item.
1. O[C@H](CN1CC(Cc2cccc(N3CC(F)C3)c2)(c2cccc(OC(F)(F)F)c2)c2ccccc21)C(F)(F)F (some centres unmarked)
2. O[C@H](CN1CC(Cc2cccc(N3CC4(COC4)C3)c2)(c2cccc(OC(F)(F)F)c2)c2ccccc21)C(F)(F)F (some centres unmarked)
3. O[C@H](CN1CC(Cc2ccccc2OC(F)(F)F)(c2cccc(OC(F)(F)F)c2)c2ccccc21)C(F)(F)F (some centres unmarked)
4. O[C@H](CN1CC(Cc2cccc(Br)c2)(c2cccc(OC(F)(F)F)c2)c2ccccc21)C(F)(F)F (some centres unmarked)
5. COc1cccc(-c2cccc(C3(Cc4cccc(OC(F)(F)F)c4)CN(C[C@@H](O)C(F)(F)F)c4ccccc43)c2)c1 (mixture of isomers)
6. O[C@H](CN1CC(Cc2ccc(F)cn2)(c2cccc(OC(F)(F)F)c2)c2cccc(F)c21)C(F)(F)F (some centres unmarked)

1: 6.35; 2: 7.01; 3: 5.92; 4: 7.17; 5: 5.83; 6: 5.54
